test system: Plasmodium falciparum; experiment: Screen against P. falciparum Asexual Blood Stage (ABS), at 5uM; assay type: functional, Dd2; settings: tested at 5 uM
The campaign covered roughly 65,000 compounds. About 2,100 (3.2%) showed an effect of 50% or more. The median lay at about -52%. The sample as a whole holds a higher share of strong results than the screen did.
readout.name: INHIBITION (%)
Kindly answer with a numeric value in %, unit omitted.

Guide cases for INHIBITION, answers given:
| molecule | INHIBITION [%] |
| --- | --- |
| O=S1(=O)CCC(n2cc(C3=CCN(CCN4CCCCC4)CC3)cn2)C1 (stereo unspecified) | 12.6 |
| CS(=O)(=O)NCC1CCCN(Cc2ccccc2F)C1 (stereo unspecified) | 89.2 |
| C[C@@H]1CN(Cc2ccco2)CCN1C(=O)Cc1ccccc1F | -154 |

State its INHIBITION: "O=C1NC[C@H]2CN(Cc3nccs3)CCN12"
-41.7

State its INHIBITION: "C[C@H]1C[C@@H]2CCN(Cc3ccco3)C[C@H]2O1"
-32

State its INHIBITION: "COc1cnc(N2CC(N3CCOCC3)C2)nc1-c1ccnn1C"
75.3

State its INHIBITION: NC1(C(=O)NCC2CCCN(Cc3ccccc3F)C2)CCCC1 (stereo unspecified)
85.6
